- System: CAF#4 (primary prostate cancer-associated fibroblasts of iCAF-like type)
- test description: drug sensitivity score (DSS2, normalised partial AUC of dose-response, 72 h CellTiter-Glo viability) (DSS (dimensionless)); higher = more sensitive (stronger growth inhibition / cytotoxicity); extreme values may be limits of the assay
metric name: drug sensitivity score

# molecule, observed
data = [
    ("Nc1ncnc2c1c(COc1cccc(Cl)c1)nn2C1CCOCC1 (tested concentration range 1-10000 nM)", 0),
    ("CCCN(CCC)C(=O)C1=Cc2ccc(-c3ccc(C(=O)N4CCCC4)cc3)cc2N=C(N)C1 [Motolimod] (tested concentration range 1-10000 nM)", 0),
    ("CC(C)c1cc(-c2n[nH]c(=O)n2-c2ccc3c(ccn3C)c2)c(O)cc1O [Ganetespib] (tested concentration range 0.1-1000 nM)", 18.3),
    ("CC[C@@H]1CN(C(=O)NCC(F)(F)F)C[C@@H]1c1cnc2cnc3[nH]ccc3n12 [Upadacitinib] (tested concentration range 1-10000 nM)", 0.1),
    ("Cc1sc2c(c1C)C(c1ccc(Cl)cc1)=N[C@@H](CC(=O)Nc1ccc(O)cc1)c1nnc(C)n1-2 [Birabresib] (tested concentration range 1-10000 nM)", 3.4),
    ("COc1cc2ncnc(Nc3cccc(Cl)c3F)c2cc1OC(=O)N1CCN(C)C[C@H]1C [AZD3759] (tested concentration range 0.1-1000 nM)", 0),
    ("Nc1ncnc2c1nc(Cl)n2[C@@H]1O[C@H](CO)[C@@H](O)[C@H]1O [8-chloro-adenosine] (tested concentration range 5-50000 nM)", 9.6),
    ("NS(=O)(=O)NCCNc1nonc1/C(=N/O)Nc1ccc(F)c(Br)c1 [Epacadostat] (tested concentration range 1-10000 nM)", 2),
    ("COc1cc2ncnc(Nc3ccc(F)c(Cl)c3)c2cc1NC(=O)/C=C/CN1CCCCC1 [Dacomitinib] (tested concentration range 0.1-1000 nM)", 1.4),
    ("Cc1[nH]c2ccccc2c1CCNCc1ccc(/C=C/C(=O)NO)cc1 [Panobinostat] (tested concentration range 0.1-1000 nM)", 8),
    ("Nc1nc2[nH]cnc2c(=S)[nH]1 [Thioguanine] (tested concentration range 1-10000 nM)", 2.9),
    ("CNC(=O)c1cc(Oc2ccc(NC(=O)Nc3ccc(Cl)c(C(F)(F)F)c3)c(F)c2)ccn1 [Regorafenib] (tested concentration range 1-10000 nM)", 2.4),
]
